# Lookup of reported Mice Surviving on Day 7 keyed by entry
- Procedure Summary: Acute in vivo toxicity in mice, intraperitoneal injection
- Measurement Context: 120 mg/kg intraperitoneal, in 10% w/v hydroxypropyl-β-cyclodextrin in 0.9% w/v saline, 5 mice
Just the number in %, nothing appended.

Worked examples, 4 molecules total:
1. COC(=O)c1cc(-c2c[nH]c3ccc(Br)cc23)nc2cc(F)ccc12	100
2. Cn1cc(-c2cc(C(=O)NCCN)c3cc(I)ccc3n2)c2cc(Br)ccc21	100
3. Clc1ccc2[nH]cc(-c3cc(Cl)c4ccccc4n3)c2c1	100
4. Cc1ccc2[nH]cc(-c3cc(Cl)c4ccc(Cl)cc4n3)c2c1	100

molecule "Fc1ccc2c(-c3ccc4cc(Cl)ccc4n3)c[nH]c2c1" , Mice Surviving on Day 7 observed: 100

Mice Surviving on Day 7 reading for "NCCNC(=O)c1cc(-c2c[nH]c3ccc(Br)cc23)nc2ccc(I)cc12" : 0
